system: MATIN; experiment: Post-emergence herbicidal action against MATIN; type: in vivo, Matricaria inodora; conditions: dosage 20 g/ha
readout type: Post-emergence action against MATIN in %
State the result as a value with its unit after it.

# count of solved cases: 8
>>> endpoint_result("CCc1c(C(=O)Nc2nnnn2CC)ccc(C(F)(F)F)c1C(=O)NCC(F)F [Example 2-276]")
"90%"
>>> endpoint_result("CCn1nnnc1NC(=O)c1ccc(C(F)F)c(C(=O)NC)c1Br [Example 2-225]")
"80%"
>>> endpoint_result("Cc1nnc(NC(=O)c2ccc(C(F)(F)F)c(C(=O)NC(C)C3CC3)c2Cl)o1 (stereo not drawn) [Example 6-254]")
"80%"
>>> endpoint_result("CC(NC(=O)c1c(C(F)(F)F)ccc(C(=O)Nc2nnnn2C)c1C1CC1)C1CC1 (stereo not drawn) [Example 1-292]")
"80%"
>>> endpoint_result("Cn1nnnc1NC(=O)c1ccc(C(F)(F)F)c(C(=O)NCC2CC2)c1Br [Example 1-210]")
"90%"
>>> endpoint_result("CCn1nnnc1NC(=O)c1ccc(C(F)F)c(C(=O)NC)c1OC [Example 2-72]")
"80%"
>>> endpoint_result("CCn1nnnc1NC(=O)c1ccc(C(F)F)c(C(=O)NC2CCC2)c1Cl [Example 2-164]")
"80%"
>>> endpoint_result("CCNC(=O)c1c(C(F)F)ccc(C(=O)Nc2nnco2)c1Cl [Example 5-123]")
"80%"

QUERY: Given the entry CSc1c(C(=O)Nc2nnnn2C)ccc(C(F)(F)F)c1C(=O)NCC1CC1 [Example 1-84] , report its measured Post-emergence action against MATIN in %.
RESULT: 90%
